- Test system: HS 578T breast
- Protocol text: NCI-60 one-dose screen, 48 h (100 = growth as untreated, 0 = no growth, -100 = all killed)
- Assay context: 10 µM unless noted
About 83,000 compounds went through this panel and 20% of them were active in at least one assay; those are over-represented in the sample as a whole.
Experimental readout: growth (%)
The answer is to be given in %; state only the numeric part.

// worked examples, growth included
CS(=O)(=O)Cc1cnc(C2OCCO2)s1: 106
C=C1C(=O)O[C@H]2[C@H]1CC/C(Cn1cc(-c3cc(C(F)(F)F)cc(C(F)(F)F)c3)nn1)=C\CC[C@@]1(C)O[C@@H]21: -30.5
O=C(CCC(=O)c1nc2ncccc2[nH]1)NN1C(=O)CSC1c1ccc(Cl)cc1 (stereo not drawn): 101
CC[C@H](Nc1nc(N)nc(C)c1C#N)c1nc2cccc(NCCCCCC(=O)NO)c2c(=O)n1-c1ccccc1: 13.2

Record `C[C@H]1[C@H](C)CC[C@]2(C(=O)O)CC[C@]3(C)C(=CC[C@@H]4[C@@]5(C)C[C@@H](Cc6cn([C@@H]7O[C@H](CO)[C@@H](O)[C@H](O)[C@H]7O)nn6)[C@H](O)C(C)(C)[C@@H]5CC[C@]43C)[C@H]12` has HS 578T breast growth equal to 103

Record `C=C1C(=O)O[C@H]2[C@H]1CC/C(COC(=O)c1cc3cc(F)ccc3[nH]1)=C\CC[C@@]1(C)O[C@@H]21` has HS 578T breast growth equal to -14.2

Record `COc1ccc(-c2ccc(-c3ccc(C(=N)N)cn3)s2)cc1` has HS 578T breast growth equal to 97.4

Record `Cc1[nH]c(C(=O)Nc2ccc(C(N)=O)cc2NC(C)C)c(Cl)c1Cl` has HS 578T breast growth equal to 82.6

====

- Tested on: NCI-H522 lung
- Protocol text: NCI-60 one-dose screen, 48 h
- Assay context: 10 µM unless noted
The panel holds about 83,000 compounds, 20% with a hit somewhere; the sample as a whole holds those more often. Active and inactive are the calls of the source. The calls were made as follows: active = growth percent below 10; inactive = the rest.
Answer with one of the outcomes given here: 1.0 (active), 0.0 (inactive)

Cc1cccc(NC(=O)CSc2nc3ccc([N+](=O)[O-])cc3[nH]2)c1: 0.0

[ask] Recorded test outcome, item `O=C(Nc1cccc(NC(=O)C2CCCCC2)c1)c1ccccn1`
[reply] 0.0

====

- System: HCC-2998 colon
- Protocol text: NCI-60 one-dose screen, 48 h
- Assay context: 10 µM unless noted
Compounds without any hit were thinned out: in the full panel of roughly 83,000, 20% have a hit. Calls of active or inactive are those of the source. How the source made its calls: active means growth percent below 10; inactive means the rest.
Answer with one of the outcomes given here: yes for active, no for inactive

Observe how each entry below is paired with its result.
CC(O)c1ncc(/C=C2\SC(=S)N(Cc3ccccc3)C2=O)s1 (stereo unspecified): no
COc1ccccc1-n1c(-c2cc(O)ccc2C)cn2c3c(=O)[nH]c(=O)n(C)c3nc12: no

[ask] Recorded test outcome, item `CCOC(=O)c1c(-c2ccc(Cl)cc2)c(C#N)c2c(C#N)c(N)nn2c1N`
[reply] no

[ask] Recorded test outcome, item `Nc1c(C(=O)Nc2cccc3ncccc23)sc2nc3c(cc12)C(=O)CCC3`
[reply] no

[ask] Recorded test outcome, item `C#CCOc1cccc(-c2ncc3cc(NC(=O)CCl)ccc3n2)c1`
[reply] yes

[ask] Recorded test outcome, item `O=C(CCCCCCN1CC(=O)N2[C@@H](c3ccc(Cl)cc3)c3[nH]c4ccccc4c3C[C@H]2C1=O)NO`
[reply] no

[ask] Recorded test outcome, item `O=C1Nc2ccc(F)cc2/C1=N/c1nnc(Sc2ccccc2)s1`
[reply] no

[ask] Recorded test outcome, item CO[C@H](C(=O)[C@@H](O)[C@@H](C)O)[C@@H]1Cc2cc3cc(O[C@H]4C[C@@H](O[C@H]5C[C@@H](O)[C@H](O)C(C)O5)[C@H](O)C(C)O4)c(C)c(O)c3c(O)c2C(=O)[C@H]1O[C@H]1C[C@@H](O[C@H]2C[C@@H](O[C@H]3C[C@@H](OC)[C@H](O)C(C)O3)[C@@H](O)C(C)O2)C(O)(O)C(C)O1 (stereo partly specified)
[reply] yes

[ask] Recorded test outcome, item COc1ccc(C(c2cc(OC)c(OC)c(OC)c2)N2CCN(Cc3ccccc3)CC2)cc1 (stereo unspecified)
[reply] no

[ask] Recorded test outcome, item `COc1ccc2cc(Cn3cc[n+](Cc4ccc5ccccc5c4)c3)ccc2c1`
[reply] no

[ask] Recorded test outcome, item `CCc1cccc(Sc2cc(C(=O)N3Cc4ccc(OCCN(C)C)cc4C3)ccc2O)c1`
[reply] no

[ask] Recorded test outcome, item O=C1OCC2=C1C(c1cccc(C(F)(F)F)c1)c1cc3c(cc1N2CCO)OCO3 (stereo unspecified)
[reply] no

[ask] Recorded test outcome, item `CC[C@H](Nc1nc(N)nc(C)c1C#N)c1nc2cccc(NCCCCCC(=O)NO)c2c(=O)n1-c1ccccc1`
[reply] no

[ask] Recorded test outcome, item `C[C@H]1[C@H](C)CC[C@]2(C(=O)O)CC[C@]3(C)C(=CC[C@@H]4[C@@]5(C)C[C@@H](Cc6cn([C@@H]7O[C@H](CO)[C@@H](O)[C@H](O)[C@H]7O)nn6)[C@H](O)C(C)(C)[C@@H]5CC[C@]43C)[C@H]12`
[reply] no

[ask] Recorded test outcome, item `Cn1cc(-c2nonc2-c2c[nH]c3ccc(F)cc23)c2cc(Br)ccc21`
[reply] no

[ask] Recorded test outcome, item `C#Cc1cccc(Nc2nc3ccc([N+](=O)[O-])cc3nc2Nc2cccc(C#C)c2)c1`
[reply] yes
